# tested target: NLRP3 (Homo sapiens)
# protocol description: Human whole blood IL1β release assay (LPS + nigericin, AlphaLisa IL-1β)
# Format: cell-based
# Set-up: Plate out 80 μl of whole blood containing 1βg/ml of LPS in 96-well, clear bottom cell culture plate; from tissue; host or cells: human whole blood from healthy donors, LPS-primed and nigericin-stimulated
# recorded conditions: NLRP3 inhibitory activity in human whole blood, IL-1β release, 10 μM nigericin, read-out: HWB IC50
# Experimental: For systemic delivery, the ability to inhibit NLRP3 when the compounds are present within the bloodstream is of great importance. For this reason, the NLRP3 inhibitory activity of a number of compounds in human whole blood was investigated in accordance with the following protocol. Human whole blood in Li-heparin tubes was obtained from healthy donors from a volunteer donor panel. • 1. […] IL-1β was measured according to the manufacturer protocol (Perkin Elmer-AlphaLisa IL-1 Kit AL220F-5000) • 8. […]
Where a name gives a salt, the structure may show the parent alone.
assay endpoint: IC50

[[record]]
compound = "CC1(C)CCN1CCS(=O)(=O)NC(=O)Nc1c2c(cc3c1CCC3)CCC2"
assay_endpoint = "IC50"
reported_result = "≤ 1000 nM"


Prompt line: // IC50 lookup, key: O=C(Nc1c2c(cc3c1CCC3)CCC2)NS(=O)(=O)CCN1CC(F)C1
Response line: ≤ 5000 nM

Prompt line: // IC50 lookup, key: O=C(Nc1c2c(cc3c1CCC3)CCC2)NS(=O)(=O)CCN1CCC1 [Example 29, Potassium Salt]
Response line: ≤ 1000 nM

Prompt line: // IC50 lookup, key: CC(C)C1CCN1CCS(=O)(=O)NC(=O)Nc1c2c(cc3c1CCC3)CCC2 (stereo not shown)
Response line: ≤ 1000 nM

====

# protocol description: PK protocol: pharmacokinetic parameters in male Sprague Dawley rats (intravenous or oral)
# Format: in vivo
# recorded conditions: plasma, intravenous administration, 1 mg/kg, rat
Where a name gives a salt, the structure may show the parent alone.
assay endpoint: half-life (h)
# value in h; strip the unit string

[[record]]
compound = "CCN(CC)CCCS(=O)(=O)NC(=O)Nc1c2c(cc3c1CCC3)CCC2 [Example 3, potassium salt]"
reported_result = 1.5

[[record]]
compound = "CN(C)CCCS(=O)(=O)NC(=O)Nc1c2c(cc3c1CCC3)CCC2 [Example 8, potassium salt]"
reported_result = 1.1

[[record]]
compound = "CCN(CC)CCCS(=O)(=O)NC(=O)Nc1c(-c2cccnc2)cc(F)cc1C(C)C"
reported_result = 0.9


Prompt line: // half-life lookup, key: O=C(Nc1c2c(cc3c1CCC3)CCC2)NS(=O)(=O)CCN1CCC1 [Example 29, Potassium Salt]
Response line: 1.3

====

# tested target: NLRP3 (Homo sapiens)
# protocol description: Human whole blood IL1β release assay (LPS + nigericin, AlphaLisa IL-1β)
# Assay type: cell-based
# Set-up: Plate out 80 μl of whole blood containing 1βg/ml of LPS in 96-well, clear bottom cell culture plate; from tissue; host or cells: human whole blood from healthy donors, LPS-primed and nigericin-stimulated
# recorded conditions: NLRP3 inhibitory activity in human whole blood, IL-1β release, 10 μM nigericin, read-out: HWB IC50
pIC50: −log10 of the molar value. Where a name gives a salt, the structure may show the parent alone.
Recorded pIC50 by entry

Look over these answered cases.
[[record]]
compound = "C#CCN(C)CCCS(=O)(=O)NC(=O)Nc1c2c(cc3c1CCC3)CCC2"
assay_endpoint = "pIC50"
reported_result = "≥ 5.30"

[[record]]
compound = "O=C(Nc1c2c(cc3c1CCC3)CCC2)NS(=O)(=O)CCCN1CCC1 [Example 72, Potassium Salt]"
assay_endpoint = "pIC50"
reported_result = "≥ 6.00"

[[record]]
compound = "COc1cc(-c2cc(F)cc(C(C)C)c2NC(=O)NS(=O)(=O)CC2CCN(C)C2)ccn1 (centres unmarked)"
assay_endpoint = "pIC50"
reported_result = "≥ 6.00"

[[record]]
compound = "CN1CCC(CS(=O)(=O)NC(=O)Nc2c3c(cc4c2CCC4)CCC3)C1 (centres unmarked) [Example 23, Potassium Salt]"
assay_endpoint = "pIC50"
reported_result = "≥ 6.00"


Prompt line: Find the measured pIC50: item O=C(Nc1c2c(cc3c1CCC3)CCC2)NS(=O)(=O)Cc1cccnc1 [Example 20, potassium salt] , target or system NLRP3 (Homo sapiens).
Response line: ≥ 5.30

Prompt line: Find the measured pIC50: item COc1cc(-c2ccc3c(c2NC(=O)NS(=O)(=O)CCOC(C)C)CCO3)ccn1 [Example 62, sodium salt] , target or system NLRP3 (Homo sapiens).
Response line: ≥ 6.00

Prompt line: Find the measured pIC50: item COC(=O)CCS(=O)(=O)NC(=O)Nc1c2c(cc3c1CCC3)CCC2 , target or system NLRP3 (Homo sapiens).
Response line: ≥ 5.12

Prompt line: Find the measured pIC50: item CCN(C)CCCS(=O)(=O)NC(=O)Nc1c2c(cc3c1CCC3)CCC2 [Example 27, potassium salt] , target or system NLRP3 (Homo sapiens).
Response line: ≥ 6.00

====

# tested target: NLRP3 (Homo sapiens, UniProt Q96P20)
# Sequence (Q96P20 whole entry): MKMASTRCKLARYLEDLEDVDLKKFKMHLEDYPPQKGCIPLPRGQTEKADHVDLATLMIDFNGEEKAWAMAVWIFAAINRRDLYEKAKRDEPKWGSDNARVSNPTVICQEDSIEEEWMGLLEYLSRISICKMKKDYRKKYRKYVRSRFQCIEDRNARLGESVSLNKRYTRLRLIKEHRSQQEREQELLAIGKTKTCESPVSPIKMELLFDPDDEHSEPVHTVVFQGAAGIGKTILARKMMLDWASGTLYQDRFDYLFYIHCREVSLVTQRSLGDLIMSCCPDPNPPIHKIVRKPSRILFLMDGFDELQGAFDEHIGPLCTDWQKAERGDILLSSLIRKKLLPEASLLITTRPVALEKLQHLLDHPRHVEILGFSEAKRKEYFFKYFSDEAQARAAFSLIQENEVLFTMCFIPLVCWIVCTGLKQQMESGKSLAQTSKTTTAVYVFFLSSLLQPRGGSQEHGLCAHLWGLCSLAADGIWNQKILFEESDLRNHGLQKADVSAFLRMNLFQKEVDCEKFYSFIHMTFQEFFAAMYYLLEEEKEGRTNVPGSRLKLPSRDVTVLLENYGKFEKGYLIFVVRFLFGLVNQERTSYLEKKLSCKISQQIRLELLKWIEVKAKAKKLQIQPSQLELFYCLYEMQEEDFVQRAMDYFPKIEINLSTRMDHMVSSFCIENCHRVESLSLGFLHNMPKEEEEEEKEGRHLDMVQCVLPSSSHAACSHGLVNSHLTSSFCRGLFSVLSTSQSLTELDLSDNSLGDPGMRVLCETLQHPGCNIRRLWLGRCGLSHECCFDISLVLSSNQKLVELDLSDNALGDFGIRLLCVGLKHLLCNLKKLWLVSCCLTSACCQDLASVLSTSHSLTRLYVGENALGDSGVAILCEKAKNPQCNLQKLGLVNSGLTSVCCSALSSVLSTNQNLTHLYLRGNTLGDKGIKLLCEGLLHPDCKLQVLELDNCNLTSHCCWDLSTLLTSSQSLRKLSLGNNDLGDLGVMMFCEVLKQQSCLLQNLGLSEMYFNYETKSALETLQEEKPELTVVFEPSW
# protocol description: Human whole blood IL1β release assay (LPS + nigericin, AlphaLisa IL-1β)
# Assay type: cell-based
# Design: Plate out 80 μl of whole blood containing 1βg/ml of LPS in 96-well, clear bottom cell culture plate; from tissue; host or cells: human whole blood from healthy donors, LPS-primed and nigericin-stimulated
# recorded conditions: NLRP3 inhibitory activity in human whole blood, IL-1β release, 10 μM nigericin, read-out: HWB IC50
pIC50: −log10 of the molar value. Structures can show the parent of a compound that is named as a salt.
assay endpoint: pIC50

[[record]]
molecule = "CC(C)C(=O)N(C)CCCS(=O)(=O)NC(=O)Nc1c2c(cc3c1CCC3)CCC2 [Example 95]"
tested_target = "NLRP3 (Homo sapiens, UniProt Q96P20)"
reported_result = "≥ 5.30"

[[record]]
molecule = "CN1CC2(COC(CS(=O)(=O)NC(=O)Nc3c4c(cc5c3CCC5)CCC4)C2)C1 (centres unmarked) [Example 80]"
tested_target = "NLRP3 (Homo sapiens, UniProt Q96P20)"
reported_result = "≥ 5.30"

[[record]]
molecule = "CCN(CCCCS(=O)(=O)NC(=O)Nc1c2c(cc3c1CCC3)CCC2)Cc1ccccc1 [Example 13, potassium salt]"
tested_target = "NLRP3 (Homo sapiens, UniProt Q96P20)"
reported_result = "≥ 5.30"


Prompt line: // pIC50 lookup, key: CC(C)N1CCCC1CS(=O)(=O)NC(=O)Nc1c2c(cc3c1CCC3)CCC2 (centres unmarked) [Example 107]
Response line: ≥ 6.00

Prompt line: // pIC50 lookup, key: CC(C)N1CCCCC1CS(=O)(=O)NC(=O)Nc1c2c(cc3c1CCC3)CCC2 (centres unmarked) [Example 109]
Response line: ≥ 6.00

Prompt line: // pIC50 lookup, key: O=C(Nc1c2c(cc3c1CCC3)CCC2)NS(=O)(=O)CCN1CCCCC1 [Example 28, Potassium Salt]
Response line: ≥ 6.00

Prompt line: // pIC50 lookup, key: CCN(CC)CCCS(=O)(=O)NC(=O)Nc1c(-c2cccnc2)cc(F)cc1C(C)C [Example 37]
Response line: ≥ 6.00

Prompt line: // pIC50 lookup, key: CC(CN(C)C)CS(=O)(=O)NC(=O)Nc1c2c(cc3c1CCC3)CCC2 (centres unmarked) [Example 36, potassium salt]
Response line: ≥ 6.00

====

# tested target: NLRP3 (Homo sapiens, UniProt Q96P20)
# protocol description: Human whole blood IL1β release assay (LPS + nigericin, AlphaLisa IL-1β)
# Format: cell-based
# Design: Plate out 80 μl of whole blood containing 1βg/ml of LPS in 96-well, clear bottom cell culture plate; from tissue; host or cells: human whole blood from healthy donors, LPS-primed and nigericin-stimulated
# recorded conditions: NLRP3 inhibitory activity in human whole blood, IL-1β release, 10 μM nigericin, read-out: HWB IC50
pIC50: −log10 of the molar value.
Recorded pIC50 by entry

Look over these answered cases.
[[record]]
molecule = "CC(CS(=O)(=O)NC(=O)Nc1c2c(cc3c1CCC3)CCC2)N1CCC1 (stereo not shown)"
tested_target = "NLRP3 (Homo sapiens, UniProt Q96P20)"
assay_endpoint = "pIC50"
reported_result = "≥ 6.00"

[[record]]
molecule = "CC(C)n1ccc(CS(=O)(=O)NC(=O)Nc2c3c(cc4c2CCC4)CCC3)n1"
tested_target = "NLRP3 (Homo sapiens, UniProt Q96P20)"
assay_endpoint = "pIC50"
reported_result = "≥ 5.12"

[[record]]
molecule = "CCN1CCCC1CS(=O)(=O)NC(=O)Nc1c2c(cc3c1CCC3)CCC2 (stereo not shown)"
tested_target = "NLRP3 (Homo sapiens, UniProt Q96P20)"
assay_endpoint = "pIC50"
reported_result = "≥ 6.00"


Would you kindly look at the next entry?
Prompt line: // pIC50 lookup, key: CC(C)N1CCCC(CS(=O)(=O)NC(=O)Nc2c3c(cc4c2CCC4)CCC3)C1 (stereo not shown)
Response line: ≥ 6.00
